- studySystem: Norepinephrine Transporter (NET) (Homo sapiens, UniProt P23975)
- Sequence (P23975 whole entry): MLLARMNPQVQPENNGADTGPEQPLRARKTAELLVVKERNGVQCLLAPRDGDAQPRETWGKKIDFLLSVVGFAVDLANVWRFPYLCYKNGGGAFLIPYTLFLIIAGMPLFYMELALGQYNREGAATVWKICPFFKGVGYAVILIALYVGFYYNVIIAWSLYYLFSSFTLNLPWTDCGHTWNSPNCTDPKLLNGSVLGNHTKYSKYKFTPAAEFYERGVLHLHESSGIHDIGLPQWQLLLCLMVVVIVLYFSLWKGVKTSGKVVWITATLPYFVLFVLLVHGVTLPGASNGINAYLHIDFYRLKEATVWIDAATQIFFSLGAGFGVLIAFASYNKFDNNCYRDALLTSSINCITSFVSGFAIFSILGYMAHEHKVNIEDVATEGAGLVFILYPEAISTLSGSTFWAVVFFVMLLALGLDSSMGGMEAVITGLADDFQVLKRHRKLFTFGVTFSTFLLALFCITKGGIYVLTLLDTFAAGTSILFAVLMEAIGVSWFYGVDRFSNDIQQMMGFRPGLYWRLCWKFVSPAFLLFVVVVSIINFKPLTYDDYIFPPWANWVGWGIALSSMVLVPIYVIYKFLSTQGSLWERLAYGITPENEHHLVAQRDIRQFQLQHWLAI
pIC50: −log10 of the molar value.

| compound | pIC50 |
| --- | --- |
| O=S(=O)(c1cccc(F)c1)n1ccc2c(N3CCNCC3)nc3ccccc3c21 [FPPQ] | 5.90 |

----------
- studySystem: UniProt Q99720
- Sequence (Q99720 whole entry): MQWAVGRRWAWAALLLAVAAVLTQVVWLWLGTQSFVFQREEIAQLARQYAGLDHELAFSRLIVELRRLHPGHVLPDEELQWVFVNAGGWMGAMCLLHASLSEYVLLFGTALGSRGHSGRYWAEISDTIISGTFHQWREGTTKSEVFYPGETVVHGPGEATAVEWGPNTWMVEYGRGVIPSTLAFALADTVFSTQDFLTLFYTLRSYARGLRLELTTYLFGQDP
pIC50: −log10 of the molar value.

| chemicalStructure | pIC50 |
| --- | --- |
| O=S(=O)(c1cccc(F)c1)n1ccc2c(N3CCNCC3)nc3ccccc3c21 | 5.08 |

----------
- studySystem: Histamine H1 (Homo sapiens)
- Construct: Eurofins (contract screening, SafetyScreen panel) PP223
- Sequence (P35367 whole entry): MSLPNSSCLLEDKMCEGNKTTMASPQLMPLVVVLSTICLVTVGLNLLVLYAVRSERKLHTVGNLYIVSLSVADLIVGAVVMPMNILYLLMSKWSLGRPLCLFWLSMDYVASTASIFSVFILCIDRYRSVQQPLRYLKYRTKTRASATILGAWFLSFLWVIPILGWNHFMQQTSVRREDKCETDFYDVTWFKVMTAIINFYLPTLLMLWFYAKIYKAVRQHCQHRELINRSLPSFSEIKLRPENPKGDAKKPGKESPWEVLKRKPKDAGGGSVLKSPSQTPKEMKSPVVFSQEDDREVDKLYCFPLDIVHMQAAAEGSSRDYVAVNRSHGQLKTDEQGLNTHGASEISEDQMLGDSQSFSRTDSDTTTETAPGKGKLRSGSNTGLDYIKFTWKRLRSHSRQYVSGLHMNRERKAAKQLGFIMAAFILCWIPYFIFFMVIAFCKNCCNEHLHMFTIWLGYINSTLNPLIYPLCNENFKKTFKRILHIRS
- assayMethodText: Eurofins SafetyScreen panel
- Assay type: binding
pIC50: −log10 of the molar value.

| chemicalStructure | pIC50 |
| --- | --- |
| O=S(=O)(c1cccc(F)c1)n1ccc2c(N3CCNCC3)nc3ccccc3c21 | 6.34 |
